Hey, just so you know, these numbers are from patent US11510990B2.

Protocol description: Pharmacokinetic measurement in C57BL/6 mice, single subcutaneous dose, plasma ELISA
Assay type: in vivo
Reported conditions: single subcutaneous dose 30 nmol/kg, plasma
// reported AUClast for each item listed

[
  {
    "Molecule": "Compound 63: GLP-1/FGF21 fusion polypeptide SEQ ID NO: 160 conjugated with Moiety B at 51C and 222C (conjugate, Moiety B conjugated at C51 and C222) HGEGTFTSDVSSYLEEQAAKEFIAWLVKGGGGGGGSGGGGSGGGGSGGGGCHPIPDSSPLLQFGGQVRQRYLYTDDAQQTEAHLEIREDGTVGGAADQSPESLLQLKALKPGVIQILGVKTSRFLCQRPDGALYGSLHFDPEACSFRELLLEDGYNVYQSEAHGLPLHLPGQKSPHRDPAPRGPARFLPLPGLPPALPEPPGILAPQPPDVGSSDPLSLVGCSQGRSPSYES",
    "AUClast, nmol·h/L": 1294.8
  },
  {
    "Molecule": "Compound 9: GLP-1/FGF21 fusion polypeptide SEQ ID NO: 9 conjugated with Moiety A at 231K (conjugate, Moiety A conjugated at K231) HGEGTFTSDVSSYLEEQAAREFIAWLVRGGGGGGGSGGGGSGGGGSGGGGSHPIPDSSPLLQFGGQVRQRYLYTDDAQQTEAHLEIREDGTVGGAADQSPESLLQLRALRPGVIQILGVRTSRFLCQRPDGALYGSLHFDPEACSFRELLLEDGYNVYQSEAHGLPLHLPGQRSPHRDPAPRGPARFLPLPGLPPALPEPPGILAPQPPDVGSSDPLSLVGGSQGRSPSYKS",
    "AUClast, nmol·h/L": 791.2
  }
]
